Biological target: Voltage-gated potassium channel subunit beta-2 (Rattus norvegicus) (UniProt P62483)
Sequence (P62483 whole entry, looked up): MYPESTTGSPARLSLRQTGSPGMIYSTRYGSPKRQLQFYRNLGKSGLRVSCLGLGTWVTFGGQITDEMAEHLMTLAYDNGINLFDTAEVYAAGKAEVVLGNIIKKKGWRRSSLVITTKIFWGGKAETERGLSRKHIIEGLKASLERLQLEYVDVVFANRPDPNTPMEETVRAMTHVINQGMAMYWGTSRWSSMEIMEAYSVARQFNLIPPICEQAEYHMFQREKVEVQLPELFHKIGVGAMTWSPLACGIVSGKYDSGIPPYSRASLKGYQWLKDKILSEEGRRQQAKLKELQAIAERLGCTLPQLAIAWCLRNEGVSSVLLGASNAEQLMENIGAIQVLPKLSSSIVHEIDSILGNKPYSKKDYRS
Assay: KvBeta positive modulators, primary screen, biochemical, NADPH fluorescence (AID 623);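 note: fluorescence intensity change per second fitted from 20 to 320 s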
Conditions: Recombinant KvBeta, NADPH fluorescence decrease slope, 10 min; at 10 µM; stronger effect = lower value
Record form. Attribute: NADPH fluorescence slope. Fill in for each entry.
One number for each entry.

The following molecules have reported results that may help.
>>> print(df.to_string())
                                   molecule  recorded_measurement
0  COc1cccc(NC(=O)C2CCCN(S(=O)(=O)c3cccc4cccnc34)C2)c1 (stereo unspecified)                -2e-05
1                CC(=O)c1ccc(C#CC(C)(C)O)s1              -7.4e-05
2              CCCCOC(=O)CCc1nc2ccccc2[nH]1              -5.5e-05
3               Nc1nc(-n2cnnc2)nn1-c1ccccc1                -3e-05

Hi, could you look up NADPH fluorescence slope for each item in my list?
1. COCc1[nH]nc2c1C(c1sccc1C)C(C#N)=C(N)O2 (stereo unspecified)
2. CC1Cc2nc(SCC(=O)Nc3ccc4c(c3)OCO4)n(-c3ccc(F)cc3)c(=O)c2S1 (stereo unspecified)
3. CCOC(=O)C(NC(C)=O)(Nc1ccc(S(=O)(=O)Nc2nccs2)cc1)C(F)(F)F (stereo unspecified)
4. CCN(CC)C(=O)Cn1c(=O)n(Cc2ccccc2Cl)c2c1c(=O)n(C)c(=O)n2C
5. COc1nc(OC)nc(N2CCC(C(=O)NCc3cccs3)CC2)n1
6. O=C(CN(C(=O)CCC(=O)Nc1nccs1)c1ccccc1F)NCC1CCCO1 (stereo unspecified)

-2.8e-05
-6.4e-05
1.5e-06
3.6e-05
-4.4e-05
-1.3e-06

Given the molecule CC(=O)NC(=O)Nc1sc(=S)n(C)c1C , write its reported NADPH fluorescence slope.
4.8e-06

----------
Assay: inhibitors of TNFa-induced NFkB p65 translocation, primary screen, imaging, HUVEC, MLSMR starter and 10KST1 sets (AID 438);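 note: compound added about 3h40 before a 20 min TNFalpha stimulation; signal is the nuclear over cytoplasmic p65 intensity ratio per well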
Conditions: HUVEC TNFa-induced p65 nuclear translocation; at 2 µM, stronger effect = higher value, 0% TNFa-plus-vehicle, 100% no-TNFa wells
Reported endpoint: inhibition (%)
One number for each entry, in %.

The following compounds have reported results that may help.
                                   compound  recorded_measurement
0  CCOC(=O)c1c(NC(=O)COC(=O)c2c(C)noc2C)sc2c1CCC2                   7.8
1        COc1cc(C)nc(Nc2nc(C)c(C(C)=O)s2)n1                     0
2  Cc1ccccc1NC(=O)Cc1nnc(SCC(=O)N2CCN(c3ccccc3)CC2)n1C                  -5.3
3            O=c1cc(-c2ccco2)nc(-c2cccs2)o1                   5.6
4  COc1ccc(/C(O)=C2\C(=O)C(=O)N(c3cc(C)on3)C2c2ccccc2OC)cc1C (stereo unspecified)                 -11.7

Hi, could you look up inhibition for each item in my list?
1. CCOC(=O)C1=C(N)n2c(s/c(=C\c3ccco3)c2=O)=C(C(=O)OC(C)C)C1c1ccco1 (stereo unspecified)
2. Cc1oc(-c2cccc(Cl)c2)nc1CN1CCC(C(=O)N2CCN(c3ccccc3F)CC2)CC1
3. N#CC1=C(SCC(=O)c2cc3ccccc3oc2=O)NC(=O)C(C#N)C12CCCC2 (stereo unspecified)

1: -7.4; 2: -0.6; 3: -36.2
